Glucose uptake Emax: recorded values
- experimental target: 3T3-L1 adipocytes (Mus musculus, UniProt P16092+Q99N32)
- Sequence (Q99N32 whole entry): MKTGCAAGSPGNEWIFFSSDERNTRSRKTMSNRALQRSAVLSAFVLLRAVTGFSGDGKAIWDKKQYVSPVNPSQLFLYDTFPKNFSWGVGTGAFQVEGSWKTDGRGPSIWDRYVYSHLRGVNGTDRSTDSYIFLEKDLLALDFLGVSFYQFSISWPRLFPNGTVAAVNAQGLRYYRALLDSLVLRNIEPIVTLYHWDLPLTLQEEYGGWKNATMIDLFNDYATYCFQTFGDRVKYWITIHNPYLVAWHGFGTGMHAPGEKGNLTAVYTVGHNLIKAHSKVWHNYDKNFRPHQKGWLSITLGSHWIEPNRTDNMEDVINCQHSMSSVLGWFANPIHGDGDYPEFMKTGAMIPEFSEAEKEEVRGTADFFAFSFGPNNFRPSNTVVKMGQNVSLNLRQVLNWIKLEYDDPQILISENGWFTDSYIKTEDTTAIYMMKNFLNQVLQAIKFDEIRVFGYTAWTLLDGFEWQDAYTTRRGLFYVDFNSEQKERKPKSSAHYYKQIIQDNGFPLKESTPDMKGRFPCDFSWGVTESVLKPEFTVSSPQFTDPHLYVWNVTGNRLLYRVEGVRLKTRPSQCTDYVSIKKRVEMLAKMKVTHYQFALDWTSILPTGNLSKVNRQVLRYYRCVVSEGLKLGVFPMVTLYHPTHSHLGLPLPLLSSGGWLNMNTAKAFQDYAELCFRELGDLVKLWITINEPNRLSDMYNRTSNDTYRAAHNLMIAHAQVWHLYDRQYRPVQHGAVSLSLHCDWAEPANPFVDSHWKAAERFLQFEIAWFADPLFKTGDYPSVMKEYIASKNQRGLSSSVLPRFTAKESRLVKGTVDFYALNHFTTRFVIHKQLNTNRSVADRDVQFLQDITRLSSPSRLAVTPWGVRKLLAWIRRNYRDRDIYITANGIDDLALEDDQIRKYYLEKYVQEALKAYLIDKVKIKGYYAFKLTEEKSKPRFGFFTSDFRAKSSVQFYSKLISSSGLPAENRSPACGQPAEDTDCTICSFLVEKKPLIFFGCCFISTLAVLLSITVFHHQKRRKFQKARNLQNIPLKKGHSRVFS
- Sequence (P16092 22-822): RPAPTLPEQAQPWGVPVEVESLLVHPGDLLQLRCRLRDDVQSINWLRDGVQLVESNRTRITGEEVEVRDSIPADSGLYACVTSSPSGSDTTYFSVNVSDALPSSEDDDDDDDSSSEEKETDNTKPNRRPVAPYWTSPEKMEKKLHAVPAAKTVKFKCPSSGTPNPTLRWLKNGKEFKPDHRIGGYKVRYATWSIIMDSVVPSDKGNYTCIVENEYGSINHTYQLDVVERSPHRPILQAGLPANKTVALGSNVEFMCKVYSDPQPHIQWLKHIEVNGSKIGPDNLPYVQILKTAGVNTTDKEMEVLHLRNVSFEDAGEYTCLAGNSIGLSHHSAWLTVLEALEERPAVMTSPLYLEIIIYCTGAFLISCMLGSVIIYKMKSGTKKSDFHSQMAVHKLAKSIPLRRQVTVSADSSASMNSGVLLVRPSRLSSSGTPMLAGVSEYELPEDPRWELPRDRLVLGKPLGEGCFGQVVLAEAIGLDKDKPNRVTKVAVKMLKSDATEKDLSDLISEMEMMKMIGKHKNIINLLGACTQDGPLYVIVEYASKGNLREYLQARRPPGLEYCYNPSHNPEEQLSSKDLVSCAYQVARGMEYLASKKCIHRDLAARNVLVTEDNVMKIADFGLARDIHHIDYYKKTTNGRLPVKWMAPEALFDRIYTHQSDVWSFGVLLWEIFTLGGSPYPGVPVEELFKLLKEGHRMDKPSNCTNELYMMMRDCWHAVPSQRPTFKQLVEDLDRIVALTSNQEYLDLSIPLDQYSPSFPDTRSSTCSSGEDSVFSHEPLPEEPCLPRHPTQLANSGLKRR
- run description: Glucose uptake in 3T3-L1 adipocytes
- Format: cell-based
- settings: stimulated 20 hours, 3H-deoxy-glucose
I only need the number, in %, no unit after it.

// worked examples, Glucose uptake Emax included
{"columns": ["molecule", "Glucose uptake Emax [%]"],
 "data": [
  ["S{Beta-180}-[2-[2-[[2-[2-[2-[[2-[2-[2-[[(4S)-4-carboxy-4-(13-carboxytridecanoyl-amino)butanoyl]amino]ethoxy]ethoxy]acetyl]amino]ethoxy]ethoxy]acetyl]amino]-ethylamino]-2-oxoethyl]-Ala[Gln121,Leu168,Cy … (protein) HPIPDSSPLLQFGGQVRQRYLYTDDAQQTEAHLEIREDGTVGGAADQSPESLLQLKALKPGVIQILGVKTSRFLCQRPDGALYGSLHFDPEACSFRELLLEDGYNVYQSEAHGLPLHLPGQKSPHRDPAPRGPARFLPLPGLPPALPEPPGILAPQPPDVGSSDPLSLVGPSQGRSPSYCS", 106],
  ["S{Beta-180}-[2-[2-[[2-[2-[2-[[2-[2-[2-[[(4S)-4-carboxy-4-(17-carboxyheptadecanoyl-amino)butanoyl]amino]ethoxy]ethoxy]acetyl]amino]ethoxy]ethoxy]acetyl]amino]-ethylamino]-2-oxoethyl]-Ala[Gln121,Leu168, … (protein) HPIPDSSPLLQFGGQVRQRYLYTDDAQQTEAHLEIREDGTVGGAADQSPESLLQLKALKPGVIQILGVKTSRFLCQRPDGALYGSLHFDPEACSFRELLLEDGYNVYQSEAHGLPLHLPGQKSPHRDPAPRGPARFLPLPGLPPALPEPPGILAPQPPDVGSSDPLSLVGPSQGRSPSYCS", 109],
  ["S{Beta-181}-[2-[2-[[2-[2-[2-[[2-[2-[2-[[(4S)-4-carboxy-4-(13-carboxytridecanoyl-amino)butanoyl]amino]ethoxy]ethoxy]acetyl]amino]ethoxy]ethoxy]acetyl]amino]-ethylamino]-2-oxoethyl]-Ala[Gln121,Leu168,Cy … (protein) HPIPDSSPLLQFGGQVRQRYLYTDDAQQTEAHLEIREDGTVGGAADQSPESLLQLKALKPGVIQILGVKTSRFLCQRPDGALYGSLHFDPEACSFRELLLEDGYNVYQSEAHGLPLHLPGQKSPHRDPAPRGPARFLPLPGLPPALPEPPGILAPQPPDVGSSDPLSLVGPSQGRSPSYAC", 55]
]}

Switching to the query record.
For S{Beta-180}-[2-[2-[[2-[2-[2-[[2-[2-[2-[[(4S)-4-carboxy-4-(17-carboxyheptadecanoyl-amino)butanoyl]amino]ethoxy]ethoxy]acetyl]amino]ethoxy]ethoxy]acetyl]amino]-ethylamino]-2-oxoethyl]-Ala[Gln121,Leu168, … (protein) HPIPDSSPLLQFGGQVRQRYLYTDDAQQTEAHLEIREDGTVGGAADQSPESLLQLKALKPGVIQILGVKTSRFLCQRPDGALYGSLHFDPEACSFRELLLEDGYNVYQSEAHGLPLHLPGQKSPHRDPAPRGPARFLPLPGLPPALPEPPGILAPQPPDVGSSDPLSLVGPSQGRSPSYC , write its Glucose uptake Emax.
71
